Measured %Inh accompanies every entry in the list below.
Test system: PIK3C2G
Settings: concentration: 1 μM, replicates: in singlicate; n = 1;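 further: KINOMEscan kinase panel screen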
The response must be a number in % with no trailing unit.

Recorded %Inh (compound Fc1cccc(COc2nnc(-c3ccc4c(c3)CCO4)o2)c1 ): 0

The compound C[C@@H]1CCCCN1c1cc(-c2ccc3c(N)n[nH]c3c2)nc(N)n1 [GSK2258759] showed %Inh equal to 0

%Inh in this record for O=C(O)COc1ncnc2cc(-c3ccc4[nH]ncc4c3)sc12 : 23

GET /value?item= Cc1nnc(-c2ccc3occ(-c4ccc(S(C)=O)cc4)c3c2)[nH]1 (stereo not shown) &field=%Inh returns 17

In plain terms, O=C1NC(=O)C(N2CCc3ccccc32)=C1c1ccccc1Cl [SB-373598] has a documented %Inh of 0

Further cases:
Lookup result for COc1ccc(Nc2nccc(NCCNC(=O)Nc3ccccc3F)n2)cc1 [GSK1379901] ; measured %Inh: 0

In plain terms, Cl.Oc1ccc(-c2nc(-c3ccccc3)[nH]c2-c2ccncc2)cc1 [SB-428218] has a documented %Inh of 0

Record CS(=O)(=O)c1ccc(-c2c(-c3ncn[nH]3)sc(N3CCOCC3)c2C#N)cc1 , field %Inh: 14

For Cc1c(O)cccc1Nc1ccnc2ccc(C(F)(F)F)cc12.Cl [GW466413] the compound record lists %Inh as 48

Item: Cl.c1ccc(-c2n[nH]cc2-c2ccnc(-c3ccc(CN4CCOCC4)cc3)c2)nc1 [GW776245] | %Inh: 0

---

Test system: PIP5K1C
Conditions: concentration: 1 μM, replicates: in singlicate; n = 1
test_readout: %Inh (%)
Answer format: numeric, % implied, no suffix.

Recorded %Inh, per entry:
Item Cc1ccccc1-n1cnc2c(N)ncnc21 was tested on PIP5K1C; the reported %Inh is 0

// compound COc1cc2ncnc(Nc3ccc4nc(-c5ccccc5)[nH]c4c3)c2cc1OC.Cl , assay PIP5K1C, %Inh value: 54

The recorded %Inh with PIP5K1C for Cc1cc(-c2ccc3c(c2)CC[C@@H](N[C@@H](C)c2ccccc2)C3)cnc1N.Cl was 34

Tested on PIP5K1C, the item NC(=O)c1nnc2ccccc2c1N showed %Inh equal to 38

Reading of %Inh for COc1cc2ncn(-c3cc(OCC4CCCO4)c(C(N)=O)s3)c2cc1OC (stereo not drawn) with PIP5K1C: 84

Measured %Inh (PIP5K1C), entry CCn1c(-c2ccccn2)nc2cnccc21 : 34

Bench note, PIP5K1C: entry Cc1ccc(C(=O)Nc2ccc(Nc3ccnc4cc(-c5ccccn5)ccc34)cc2O)cc1.Cl , its %Inh = 0

The compound Cl.O=C(Nc1cccc(-c2nn3ncccc3c2-c2ccnc(Nc3cccnc3)n2)c1)c1c(F)cccc1F on PIP5K1C: %Inh was 11

Next:
PIP5K1C data for C[C@@H]1CCCCN1c1cc(-c2ccc3c(N)n[nH]c3c2)nc(N)n1 ; its %Inh: 44

Fill in: PIP5K1C %Inh for Cl.NC(=O)c1cccc(Nc2nccc(Nc3ccc(Oc4cccc(Cl)c4)c(Cl)c3)n2)c1 = 45

---

System: IKK-beta
Construct: gene IKBKB
Details: concentration: 1 μM, replicates: in singlicate; n = 1
%Inh: recorded values
Answer format: numeric, % implied, no suffix.

Lab note: O=C(Nc1ccccc1)Nc1cccc(Oc2ccc3nccn3n2)c1 gave %Inh of 0

The value of %Inh measured for the compound COc1cc2nccc(Nc3ccc(NC(=O)c4ccc(C)cc4)c(O)c3)c2cc1OC.Cl turned out to be 3

Reported %Inh of CCn1c(-c2ccccn2)nc2cnccc21 : 17

***
// %Inh value for Cc1ccc(NC(=O)Nc2cc(C(C)(C)C)nn2-c2ccccc2)cc1 : 20

For reference, reported %Inh for O=C(Nc1n[nH]c2nc(-c3nccs3)c(Br)cc12)C1CCCC1 stands at 27

%Inh recorded for this compound, Cn1ccc2ncnc(Oc3ccc(Nc4nc5ccccc5[nH]4)cc3)c21 , is 0

%Inh in this record for Cc1ccc(C(=O)Nc2ccc(Nc3ccnc4cc(-c5ccccn5)ccc34)cc2O)cc1.Cl : 0

For reference, reported %Inh for Cn1cncc1-c1ccc2ncnc(Nc3ccc(OCc4ccccc4)cc3)c2c1 stands at 0

Lookup result for Fc1cccc(COc2nnc(-c3ccc4c(c3)CCO4)o2)c1 ; measured %Inh: 7

Measured %Inh, O=C(Nc1n[nH]c2nc(-c3nccs3)c(Br)cc12)C1CC1 : 49

Kindly note the recorded %Inh for Cc1ccc(-c2cc(-c3c[nH]nc3-c3ccccn3)ccn2)cc1 , which is 0

Item: COc1ccc(CNC(=O)NC2CCN(c3ccnc(Nc4cc(OC)c(OC)c(OC)c4)n3)C2)cc1 (centres unmarked) | %Inh: 0

Input CN(C)CCN(C)C(=O)c1cc(-c2ccncc2)c(-c2ccc(Cl)c(O)c2)o1.Cl.Cl . Output %Inh: 35

What the record says about Cc1cc(-c2ccc3c(c2)CC[C@@H](N[C@@H](C)c2ccccc2)C3)cnc1N.Cl : %Inh is 0

---

Tested on: MARK4
Settings: concentration: 1 μM, replicates: in singlicate; n = 1
test_readout: %Inh
Remember to quote the unit after the number.

Recorded %Inh, per entry:
// recorded %Inh for Clc1cc(Cl)cc(Nc2ccnc(Nc3cc(Cl)cc(Cl)c3)n2)c1 : 0%

Recorded result, Cc1cccc(-c2nc(Nc3ccc4[nH]ncc4c3)c3ccccc3n2)n1 , %Inh: 0%

%Inh recorded for this compound, COc1ccc(Nc2nccc(-c3cccc(NC(=O)c4cc5cc(F)ccc5[nH]4)c3)n2)cc1 , is 21%

Further cases:
Entry under test: CCn1c(-c2cccnc2O)nc2cnccc21 . Its %Inh was 0%

So, O=C(Nc1n[nH]c2nc(-c3nccs3)c(Br)cc12)C1CC1 ? Its %Inh was 0%

Data point: Cl.NC(=O)c1cccc(Nc2nccc(Nc3ccc(Oc4cccc(Cl)c4)c(Cl)c3)n2)c1 ; %Inh = 24%

---

Each entry below lists one item and its recorded %Inh value.
Tested on: PLK2
Conditions: concentration: 1 μM, replicates: in singlicate; n = 1
# answer = value followed by unit

Recorded results for 3 compounds are shown here.
So for CC1=C(C(=O)Nc2cc3cn[nH]c3cc2F)C(c2ccc(C(F)(F)F)cc2)CC(=O)N1 (stereo not shown) [GSK429286] , the logged %Inh turned out to be 0%

For this compound ( Cc1nnc(-c2ccc3occ(-c4ccc(S(C)=O)cc4)c3c2)[nH]1 (stereo not shown) ), measured %Inh is 14%

The recorded %Inh for entry CSc1nn2c(=O)cc(N3CCOCC3)nc2n1Cc1cccc(C(F)(F)F)c1C [GSK2363608] equals 0%

# ---- query compound ----
Noted for NC(=O)c1nnc2ccccc2c1N : its %Inh reads 8%

---

Tested on: PDGFRA
Conditions: concentration: 1 μM, replicates: in singlicate; n = 1
test_readout: %Inh (%)
Use % as the unit, but write only the number.

Below, each entry is followed by its recorded %Inh result.
Lab note: measured %Inh of Clc1cc(Cl)cc(Nc2ccnc(Nc3cc(Cl)cc(Cl)c3)n2)c1 was 14

response.value for O=C(Nc1ccccc1)Nc1cccc(Oc2ccc3nccn3n2)c1 (field: %Inh) = 98.9

Others:
Value of measured %Inh for the entry Cc1cccc(-c2cc(Nc3ccncc3)c3ccccc3n2)n1 : 2

Summary for this compound, Cc1ccc(NC(=O)Nc2cccc(Cl)c2)cc1-c1ccc(C(=O)Nc2ccncc2)cc1 : %Inh is 43

Sample Fc1cccc(COc2nnc(-c3ccc4c(c3)CCO4)o2)c1 ; %Inh observed: 28

Noted for Cc1cccc(-c2nc(Nc3cccc(C(N)=O)c3)c3ccccc3n2)n1 : its %Inh reads 0

Per the records, this compound ( COc1cc(Nc2nccc(N3CCC(NC(=O)Nc4cc(C)ccc4C)C3)n2)cc(OC)c1OC (stereo not drawn) ) has %Inh equal to 8

The compound identified as Cn1cncc1-c1ccc2ncnc(Nc3ccc(OCc4ccccc4)cc3)c2c1 registered its %Inh at 0

Entry COc1ccccc1CNC(=O)c1cc(C(=O)c2ccccc2C)c[nH]1 ; %Inh = 0

Documented %Inh of Cc1cc(NCC(c2ccccc2)c2ccccc2)nc(NCc2ccc(C(F)(F)F)cc2)n1 : 0

%Inh measured on Cl.NC(=O)c1cccc(Nc2nccc(Nc3ccc(Oc4cccc(Cl)c4)c(Cl)c3)n2)c1 = 0

Memo: Nc1ncnc2[nH]c(-c3ccccc3)nc12 , reported %Inh: 9

Entry CC(C)(C)c1ccc(C(=O)Nc2cn3cc(Cl)ccc3n2)cc1 ; %Inh = 12

Documented %Inh of COc1ccc(C2=C(Nc3cccc(C(=O)O)c3)C(=O)NC2=O)cc1 : 30

Recorded result, Cc1cccc(-c2nc(Nc3ccncc3)c3ccccc3n2)n1 , %Inh: 0

---

Test system: AAK1
Settings: concentration: 1 μM, replicates: in singlicate; n = 1
Kindly return YES if reported %Inh is no lower than 6%; return NO if it is lower.

Example results:
query: Does COc1ccccc1CNC(=O)c1cc(C(=O)c2ccccc2C)c[nH]1 have a reported %Inh of at least 6%?
result: NO

query: Reported %Inh reaches at least 6% for O=C(Nc1n[nH]c2nc(-c3nccs3)c(Br)cc12)C1CC1 ?
result: YES

query: Please indicate if the recorded %Inh for Cc1c(O)cccc1Nc1ccnc2ccc(C(F)(F)F)cc12.Cl meets or exceeds 6%.
result: NO

---
query: Does %Inh meet or surpass 6% for COc1ccc(Nc2nccc(NCCNC(=O)Nc3ccccc3F)n2)cc1 ?
result: YES

query: Is %Inh at least 6%? Consider Cc1cc(-c2ccc3c(c2)CC[C@@H](N[C@@H](C)c2ccccc2)C3)cnc1N.Cl
result: YES

query: In plain terms: is recorded %Inh at least 6% for O=C(O)COc1ncnc2cc(-c3ccc4[nH]ncc4c3)sc12 ?
result: YES

query: Is it the case that O=C(Nc1n[nH]c2nc(-c3nccs3)c(Br)cc12)C1CCCC1 has %Inh reaching or exceeding 6%?
result: YES

query: Item Cc1ccc(NC(=O)Nc2cccc(Cl)c2)cc1-c1ccc(C(=O)Nc2ccncc2)cc1 with %Inh of 6% or above?
result: YES

query: Check if %Inh >= 6% (inclusive). Item: Cc1cccc(-c2nc(Nc3cccc(C(N)=O)c3)c3ccccc3n2)n1
result: NO

query: Hello, I need to know if O=C(Nc1n[nH]c2cc(-c3cccc(F)c3F)ccc12)C1CC1 has measured %Inh not below 6%. Thanks!
result: YES

query: Check the entry Cc1ccc(C(=O)Nc2ccc(Nc3ccnc4cc(-c5ccccn5)ccc34)cc2O)cc1.Cl : does %Inh equal or exceed 6%?
result: NO

query: Is reported %Inh greater than or equal to 6% here: CC(C)(C)c1ccc(C(=O)Nc2cn3cc(-c4cccnc4)ccc3n2)cc1
result: YES

query: Is it the case that O=S(=O)(c1ccc(-c2ccnc3[nH]ccc23)cc1)N1CCCC1 has %Inh reaching or exceeding 6%?
result: YES

query: Check this compound for %Inh at or above 6%: Nc1ncnc2[nH]c(-c3ccccc3)nc12
result: NO

query: hey, is %Inh for this one >= 6%? COC(=O)c1c(-c2ccccc2)c2cc(C(=O)O)ccc2c(=O)n1Cc1ccccc1
result: NO

query: %Inh >= 6% for Cc1ccc(-c2cc(-c3c[nH]nc3-c3ccccn3)ccn2)cc1 ?
result: YES

query: Does %Inh meet or surpass 6% for CS(=O)(=O)c1ccc(-c2c(-c3ncn[nH]3)sc(N3CCOCC3)c2C#N)cc1 ?
result: YES

query: Hello, I need to know if COc1cccc(-c2cc(-c3c[nH]nc3-c3ccccn3)ccn2)c1 has measured %Inh not below 6%. Thanks!
result: NO

query: In plain terms: is recorded %Inh at least 6% for COc1cc(Nc2nccc(N3CCC(NC(=O)Nc4cc(C)ccc4C)C3)n2)cc(OC)c1OC (stereo not drawn) ?
result: YES

query: Kindly determine if %Inh recorded for CS(=O)(=O)c1ccc(-c2nc3n(c2-c2ccncc2)CCC3)cc1 is above or exactly 6%.
result: YES

query: API: above_or_equal(metric=%Inh, cutoff=6%) for item COc1cc2nccc(Nc3ccc(NC(=O)c4ccc(C)cc4)c(O)c3)c2cc1OC.Cl
result: YES

query: Evaluate Cc1ccccc1-n1cnc2c(N)ncnc21 : %Inh at minimum 6%?
result: NO

query: Is the recorded value of %Inh equal to or greater than 6% for this compound? O=C(Nc1ccc2c(c1)OCO2)NC1CCN(c2ccnc(Nc3ccc(F)cc3)n2)C1 (stereo not drawn)
result: YES

query: Textbook exercise: given the entry COc1ccccc1-c1ccc2c(NC(=O)C3CC3)n[nH]c2n1 , state whether its %Inh is greater than or equal to 6%.
result: YES
